Entries and their FDI
system: Trogoderma granarium; assay: Antifeeding activity against Trogoderma granarium (khapra beetle) larvaes in compound treated wheat wafer disk assessed as total coefficient of deterrence by feeding deterrent activity test; format: functional

# MOLECULE, FDI
measured = [
    ("COc1cc2c(cc1OC)OC(C)(C)C(CC(=O)O)=C2", 97.4),
    ("COc1ccc2c(c1)OC(C)(C)[C@@]1(I)CC(=O)O[C@@H]21 (racemic)", 111.4),
    ("COc1cc2c(cc1OC)[C@@H]1OC(=O)C[C@]1(I)C(C)(C)O2 (racemic)", 120.1),
    ("COc1cc2c(cc1OC)OC(C)(C)C=C2", 198.6),
    ("COc1cc2c(cc1OC)C1=C(CC(=O)O1)C(C)(C)O2", 116.2),
]
